The measured values listed here are drawn from ChEMBL document CHEMBL1201862.

- Test system: NCI-H522
- Test description: NCI tumour cell line growth inhibition, 48 h
Activity calls are given as the source filed them. Rule as the data show it: active = GI50 up to about 1.1 µM and inactive = higher.
Classes to choose from: active, inactive

COc1ccc(-c2cc(-c3ccco3)c(C#N)c(=S)n2C2OC(COC(C)=O)C(OC(C)=O)C(OC(C)=O)C2OC(C)=O)cc1 (stereo not given): inactive
O=C(N/C(=C\c1cc(Cl)ccc1Cl)c1nc2c(O)nc(S)nc2[nH]1)c1ccccc1: inactive
CCOCN/C(N)=N\C#N: inactive

GET /call?item= COc1ccc2nc(NC(=O)C(=O)C(C#N)c3ccc(CC#N)cc3)sc2c1 (stereo not given) returns the recorded outcome of this test.
inactive

Similarly, `O=C1c2c(Br)sc(Br)c2C(=O)C1(O)O` ?
inactive

Now the compound CCOC(=O)[C@H]1Nc2ccc(OC)cc2C2c3ccccc3CC21 (stereo not given in full)
inactive

Also check `O=C1N[C@H]2C(=O)c3c(Br)sc(Br)c3[C@H]2O1`
inactive

Cool, now `COc1cc2nc(-c3ccc4ccccc4c3)nc(O)c2cc1OC`
inactive

Try this compound too: `O=C(C#Cc1ccccc1)NC/C=C/c1ccccc1`
inactive

Entry to check: `CCOC(=O)c1cc(OC(=O)CC)c2c(OC)ccc(OC)c2c1`
inactive

Same question, `O=c1ccs[nH]1` this time
active

Cool, now COc1ccc(C2=NN(C(=O)c3ccccc3)C(O)(c3cc(F)c(Cl)cc3Cl)C2)cc1OC (stereo not given)
inactive

Also CC(C)N1CCCOC(c2ccc([N+](=O)[O-])cc2)O1 (stereo not given) , if possible.
inactive

Note, next up: `CN(C)c1ccc(/C=C2\C=Cc3ccccc32)cc1`
inactive

Likewise for `C/C(=N\Oc1cc(Cl)ncn1)c1ccccn1` ?
inactive

Next up: COC(=O)Cc1c2n(c3ccccc13)C(=O)N1c3ccccc3C(CC(=O)OC)C21 (stereo not given)
inactive

Query `COC(=O)C(I(OS(=O)(=O)c1ccc(C)cc1)c1ccccc1)=P(c1ccccc1)(c1ccccc1)c1ccccc1` next
inactive

Continue with `c1ccc2c(c1)Sc1ccccc1N2CCCN1c2ccccc2Sc2ccccc21`
inactive

====

Overview of recorded GI50 for various compounds
- System: LXFL 529
- Test description: NCI tumour cell line growth inhibition, 48 h
Calls of active or inactive are those of the source. Rule as the data show it: active = GI50 up to about 1.1 µM and inactive = higher.

# example entries with known answers
NC1=NS(=O)(=O)Nc2nc(-c3cccs3)[nH]c21: > 100 µM (inactive)
C/C(=N\NC(=N)N)C(CN1CCOCC1)C(c1ccccc1)c1c(O)c2ccccc2oc1=O (stereo not given): > 100 µM (inactive)
COc1cc2c(cc1OC)C(Cc1ccc(Oc3cc(CC4c5cc(OC)c(OC)cc5CCN4C)ccc3O)cc1)N(C)CC2 (stereo not given): 14.8 µM (inactive)
Oc1ccc(C2Oc3cc(O)cc4c3C2c2cc(O)cc3c2C(c2cc(O)cc5c2C4C(c2ccc(O)cc2)O5)C(c2ccc(O)cc2)O3)cc1 (stereo not given): 5.41 µM (inactive)

API: the following record is the query input.
Please look up its GI50: `COC(=O)c1ccc(C(=O)OC)c2nc3cc(Cl)ccc3nc12`
> 100 µM (inactive)

====

- Tested on: SR
- Test description: NCI tumour cell line growth inhibition, 48 h
Active and inactive are the calls of the source. No stated cut-off is given here; in the data, active = GI50 up to about 1.1 µM and inactive = higher.
Valid outcomes are listed here; reply with one: 1 for active, -1 for inactive

O=c1ccs[nH]1: -1
O=C1C(O)=C(C(CCc2ccccc2)C2=C(O)C(=O)c3ccccc3C2=O)C(=O)c2ccccc21: -1
CSc1nc(-c2ccc(Cl)cc2)c(C#N)c(=O)n1C1OC(COC(C)=O)C(OC(C)=O)C(OC(C)=O)C1OC(C)=O (stereo not given): -1
CC1(C)N=C(N)N=C(N)N1c1cccc(Cl)c1: -1

Assay outcome for `CCOC(=O)NC(=O)c1cn(CCCOC(=O)CCCCCCCCC(=O)OCCCn2cc(C(=O)NC(=O)OCC)c(=O)n(C)c2=O)c(=O)n(C)c1=O` : what was it?
-1

// query: `O=C(c1ccccc1)c1ccc2[nH]c(-c3c(Cl)c(Cl)c(Cl)c(Cl)c3C(=O)N/N=C\C=C\c3ccccc3)nc2c1`
-1

Let us now turn to CC(=O)NC(C)(C)C1CCC(C)=C(c2ccccc2)C1 (stereo not given)
-1

Same question for `Cc1ccc(C(=O)/C=C2\Nc3ccccc3S\C2=N\CS(=O)(=O)c2ccc(C)cc2)cc1` please.
-1

Do the same for S=C1NC(c2ccccc2)=NC(Cc2ccccc2)(c2ccccc2)N1c1ccccc1 (stereo not given) please
-1

Do the same for `O=[N+]([O-])c1c(F)c(F)c2c(c1F)N(CCCCCl)c1ccccc1S2` please
-1

Now give it for `O=[N+]([O-])c1ccc2sc(/C=N/c3ccc(O)cc3)cc2c1` too.
-1

====

Overview of reported GI50 across a group of compounds:
- Test system: OVCAR-5
- Test description: NCI tumour cell line growth inhibition, 48 h
Active and inactive are the calls of the source. Cut-off read from the data, not from the text of the source: active = GI50 up to about 1.1 µM and inactive = higher.

Cn1c(=O)c2nc(CCCCC(=O)O)[nH]c2n(C)c1=O: > 100 µM (inactive)

Query: GI50; subject: `CS(=O)(=O)OCCN(CCOS(C)(=O)=O)c1ccc(/C=N/N=c2/nc[nH]c3nc[nH]c23)cc1`
20.6 µM (inactive)

Please give the result for `O=[N+]([O-])c1c(F)c(F)c2c(c1F)N(CCCCCl)c1ccccc1S2` too.
18.8 µM (inactive)

What about this compound? COc1ccc2c(c1)CCCN1CCc3cc(OC)c(OC)cc3C21 (stereo not given)
> 100 µM (inactive)

====

Measured GI50 values are reported for all entries that follow.
- System: SNB-19
- Test description: NCI tumour cell line growth inhibition, 48 h
Activity calls are given as the source filed them. No stated cut-off is given here; in the data, active = GI50 up to about 1.1 µM and inactive = higher.

Worked cases, answers included:
CCCCCCCSCC(O)COC(c1ccccc1)(c1ccccc1)c1ccccc1 (stereo not given): 76.6 µM (inactive)
O=C1Nc2ccccc2C1=Nc1ccc(S(=O)(=O)Nc2nccs2)cc1: > 100 µM (inactive)
O=C1C=CC(=O)c2c(NCC3CC3)ccc(NCC3CC3)c21: > 100 µM (inactive)
CCOc1cc2c(cc1O)/C(=N\OC)C[C@@H]1[C@@H]2CC[C@]2(C)[C@@H](O)CC[C@@H]12: 2.11 µM (inactive)
COC(OC)C1OC(CO)C(n2cc(C)c(=O)[nH]c2=O)C1O (stereo not given): > 100 µM (inactive)
O=C(N/C(=C\c1cc(Cl)ccc1Cl)c1nc2c(O)nc(S)nc2[nH]1)c1ccccc1: > 55.2 µM (inactive)
C/C(=N\Oc1cc(Cl)ncn1)c1ccccn1: > 100 µM (inactive)
Cc1ccc([N+](=O)[O-])cc1S(=O)(=O)Nc1ccc(C2=NOC(c3cccs3)C2)cc1 (stereo not given): 13.8 µM (inactive)
COc1ccc(/C=C2/C(=O)C(c3ccccc3)N(c3ccccc3)C2=O)cc1OC (stereo not given): > 10 µM (inactive)

# query: GI50 | item `O=C1N[C@H]2C(=O)c3c(Br)sc(Br)c3[C@H]2O1` | system: SNB-19
15.9 µM (inactive)

====

- System: KM12
- Test description: NCI tumour cell line growth inhibition, 48 h
The source made the active and inactive calls. Rule as the data show it: active = GI50 up to about 1.1 µM and inactive = higher.
Endpoint: GI50

CC(C)Oc1cccc(N2C(Nc3ccccc3)=Nc3ccncc3S2(=O)=O)c1: 20.7 µM (inactive)
N=C(N)NS(=O)(=O)c1ccc(NCc2cccc3c(=O)c4ccc(Cl)cc4oc23)cc1: 3.25 µM (inactive)

Query (molecule): O=C1NC(c2ccccc2)N=C2Oc3ccccc3C=C12 (stereo not given) ; field requested: GI50
2.62 µM (inactive)

Then `Cc1occc1/C(S)=N\c1ccc(Cl)c(C(=O)OCC(F)(F)F)c1` ?
20.8 µM (inactive)

N/N=C(\C(=O)Nc1ccc(Cl)cc1Cl)C(c1cnc2ccccc2n1)[N+](=O)[O-] (stereo not given) , same question.
> 100 µM (inactive)

====

- System: HCT-116
- Test description: NCI tumour cell line growth inhibition, 48 h
Active and inactive are the calls of the source. No stated cut-off is given here; in the data, active = GI50 up to about 1.1 µM and inactive = higher.
Give your call using only these classes: active, inactive

Record excerpt, results attached:
COC(=O)/C=C/C(=O)Nc1cc(Cl)c(Cl)cc1CC(=O)N(C)[C@H]1CCCC[C@@H]1N1CCCC1: inactive
CCOC(=O)C(C(=O)OCC)=C1NC2(c3ccccc3Nc3ccc(C)cc32)C(C(=O)OC)S1 (stereo unspecified): inactive
Cc1ccc(/N=N/c2c(O)ccc3ccccc23)cc1: inactive
CC1Cc2c(cc(N)nc2Br)NC1=O (stereo unspecified): inactive
C/C(=N\Oc1cc(Cl)ncn1)c1ccccn1: inactive

Now take the following compound into account.
Kindly provide the recorded test outcome for the following compound: CCN(CC)CCNc1ccc(CO)c2sc3ccccc3c(=O)c12 [HYCANTHONE]
inactive

====

Measured GI50, listed per entry.
- System: KM12
- Test description: NCI tumour cell line growth inhibition, 48 h
Calls of active or inactive are those of the source. No stated cut-off is given here; in the data, active = GI50 up to about 1.1 µM and inactive = higher.

Here is how some compounds turned out for GI50.
COC(=O)CCCc1c(-c2[nH]c3ccccc3c2CCCC(=O)OC)[nH]c2ccccc12: > 100 µM (inactive)
CCOC(=O)[C@H]1Nc2ccc(OC)cc2C2c3ccccc3CC21 (stereo not given in full): > 100 µM (inactive)
O=C1Nc2ccc(S(=O)(=O)O)cc2/C1=C1/Nc2ccc(Br)cc2C1=O: > 100 µM (inactive)

Field request: GI50 | item: `O=[N+]([O-])c1ccc(N/N=C/CC(O)(C(F)(F)F)C(F)(F)F)c([N+](=O)[O-])c1`
4.82 µM (inactive)

Follow-up item: CC(C)(C)c1cc(C(O)(C(F)(F)F)C(F)(F)F)c2c(c1)C(C(F)(F)F)(C(F)(F)F)OC(c1ccccc1)(C(C)(C)C)N2 (stereo not given)
4.5 µM (inactive)
